# experiment: Toxicity studies (LD50, LD10, organ damage) in mice
# Assay type: in vivo
# condition-description: mouse, in vivo; mice (BALB/c), observed 7 to 14 days after last dose; AA10 and AA12 in DMSO, AA14 in PBS
# Description: Toxicity studies were carried out in animal models for AA10, AA12 and AA14. AA10 and AA12 were solubilized in DMSO and AA14 was dissolved in PBS (pH 7.4). […] Five mice (BALB/c) were treated with different concentrations of compound. […] The LD50 was calculated from a plot of % mortality versus dose (log M) using a four parameter logistic equation. At the end of the experiment an animal from each study administered with 100 mg/kg of compound was sacrificed and pathologically analyzed for organ damage.
property-label: LD50 (mg/kg)
One number for each entry, in mg/kg.

Would you mind listing LD50 for each of the following molecules?
1. Cc1oncc1C(=S)Nc1ccc(C(F)(F)F)cc1
2. CC(O)=C(C#N)C(=S)Nc1ccc(C(F)(F)F)cc1

96
79

* * *

# experiment: Toxicity studies (LD50, LD10, organ damage) in mice
# Format: in vivo
# condition-description: mouse, in vivo
property-label: LD50 (mg/kg)
Numbers only, in mg/kg.

Suppose we examine the compound `CC(O)=C(C#N)C(=S)Nc1ccc(C(F)(F)F)cc1.[Na]` ; what LD50 value has been reported?
145

Measured values drawn from patent US5914343A for this set.
